target-desc: Mannose-6-phosphate isomerase (Homo sapiens)
assay-summary: MPI inhibition at elevated mannose 6-phosphate – biochemical, fluorescence intensity, high mannose 6-phosphate, primary screen (AID 1220)
experimental-setup: recombinant PMI enzyme, coupled fluorescence intensity; at 20 µM
In all, about 190,000 compounds went through this assay and about 1,300 (0.68%) were called active. Rule as the data show it: active = inhibition above about 50%; inactive = the rest. What follows is part of a selection rich in actives, with near analogues and random picks from the rest.
Response enum: Y = active, N = inactive

See these solved cases before continuing.
O=C1C=C(Nc2cccc(O)c2)CC(c2ccco2)C1 (configuration not stated): N
Oc1ccc2cc(Br)ccc2c1CN1CCCC1: N
O=C(c1nc2ncccn2n1)N1CCN(c2ccc(F)cc2)CC1: N
OC(COCc1ccc(Cl)cc1)CN1CCN(CC(O)COCc2ccc(Cl)cc2)CC1 (configuration not stated): N
c1ccc2c(-n3cnnn3)cccc2c1: N
CN(C)S(=O)(=O)c1cccc(NC(=S)Nc2cc(Cl)cc(Cl)c2)c1: N

[in] What call does the record list for O=C(NCCCN1CCOCC1)C(Sc1ccccc1)c1ccccc1 (configuration not stated) ?
[out] N

[in] What do you get for COC(=O)Cc1csc(Nc2ccc(F)c(Cl)c2)n1 ?
[out] N

====

target-desc: Mannose-6-phosphate isomerase (Homo sapiens) (UniProt P34949)
Sequence (P34949 whole entry, looked up): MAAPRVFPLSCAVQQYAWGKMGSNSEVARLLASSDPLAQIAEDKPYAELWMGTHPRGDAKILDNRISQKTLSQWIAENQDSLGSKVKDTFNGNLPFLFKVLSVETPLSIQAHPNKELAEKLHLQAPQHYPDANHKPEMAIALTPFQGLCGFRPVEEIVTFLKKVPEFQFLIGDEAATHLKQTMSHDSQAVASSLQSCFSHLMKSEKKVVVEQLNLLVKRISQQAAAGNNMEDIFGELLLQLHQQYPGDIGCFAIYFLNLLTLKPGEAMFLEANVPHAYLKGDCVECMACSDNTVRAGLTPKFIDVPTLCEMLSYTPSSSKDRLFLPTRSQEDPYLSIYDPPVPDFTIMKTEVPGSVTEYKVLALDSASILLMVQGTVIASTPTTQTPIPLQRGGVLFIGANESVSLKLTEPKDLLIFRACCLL
assay-summary: MPI inhibition at elevated mannose 6-phosphate – biochemical, fluorescence intensity, high mannose 6-phosphate, primary screen (AID 1220)
experimental-setup: recombinant PMI enzyme, coupled fluorescence intensity; at 20 µM
Among all 190,000 compounds or so, about 1,300 (0.68%) were called active. No stated cut-off is given here; in the data, active means inhibition above about 50%; inactive means the rest. This is one part of a sample in which actives are shown more often than they occur.
Give one outcome, nothing more. List: active, inactive

Reference set, count: 5
O=C(CN1CCOCC1)N/N=C/c1cc2ccccc2nc1Cl: inactive
O=C(COc1cccc(Cl)c1)N/N=C\c1cc2ccccc2nc1Cl: inactive
Cc1ccc(NCC(=O)N/N=C\c2cccc(O)c2)cc1: inactive
Cc1ccc(NCC(=O)N/N=C/c2cc3ccccc3nc2Cl)cc1: active
Cc1ccc(NCC(=O)N/N=C\c2ccc([N+](=O)[O-])o2)cc1: inactive

Now look at this one.
[in] # outcome recorded in this test, key = Cc1ccccc1OCC(=O)N/N=C/c1cc2ccccc2nc1Cl
[out] inactive

====

target-desc: Mannose-6-phosphate isomerase (Homo sapiens) (UniProt P34949)
assay-summary: MPI inhibition at elevated mannose 6-phosphate – biochemical, fluorescence intensity, high mannose 6-phosphate, primary screen (AID 1220)
experimental-setup: recombinant PMI enzyme, coupled fluorescence intensity; at 20 µM; hits give high values
Among all 190,000 compounds or so, about 1,300 (0.68%) were called active. This excerpt belongs to a sample that is enriched for actives.
# cutoff 50% applies to inhibition; >= gives T, < gives F

Below are worked cases with known answers.
CCOCCn1c(=NC(=O)/C=C/c2ccccc2Cl)sc2cc(NC(C)=O)ccc21: F
c1cc(Nc2cccc3nccnc23)c2nccnc2c1: T
CC(C)C(c1nnnn1Cc1ccc(F)cc1)N1CCSCC1 (stereo unspecified): F
CCOc1c(O)ccc(C2NC(=O)N(C)C(C)=C2C(=O)OC)c1[N+](=O)[O-] (stereo unspecified): T

[in] inhibition >= 50% for CCNC(=S)Nc1scc(-c2ccccc2)c1C(=O)OCC ?
[out] T

[in] Ok, now CC(C)C(c1nnnn1Cc1ccc(F)cc1)N1CCN(c2ccc(O)cc2)CC1 (stereo unspecified)
[out] T

[in] And the next one, Fc1ccc(Nc2cccc3nccnc23)cc1 ?
[out] F

[in] Also, COc1cc(/C=N/N2CCOCC2)ccc1OCc1ccccc1 please.
[out] F

[in] Then COc1cccc(NC(=O)N2CCCC2C(=O)Nc2ccc3c(c2)OCCO3)c1 (stereo unspecified) ?
[out] F

====

target-desc: Mannose-6-phosphate isomerase (Homo sapiens)
assay-summary: MPI inhibition at elevated mannose 6-phosphate – biochemical, fluorescence intensity, high mannose 6-phosphate, primary screen (AID 1220)
experimental-setup: recombinant PMI enzyme, coupled fluorescence intensity; at 20 µM; hits give high values
The campaign covered roughly 190,000 compounds. About 1,300 (0.68%) were called active. Many of the other results were omitted from the sample, so actives are more common in it than they were.
Reported inhibition by item:
Number in %, nothing else.

CN(c1ccc(OCC(=O)Nc2nc(-c3ccccc3)cs2)cc1)S(=O)(=O)c1ccc(F)cc1: 8.4
O=[N+]([O-])c1cc(Br)c(O)c(C=Nc2ccc(N3CCOCC3)cc2)c1: 40.2
Cc1ccc(N=C2NC(=O)c3cc([N+](=O)[O-])ccc32)cc1: 6.9
CC(=O)OCCN(C)c1cc(SC(C)C)c2nonc2c1[N+](=O)[O-]: 24.4
CCc1ccc(NC(=O)c2c(C(=O)Nc3ccccc3)sc3nc(C)cc(=O)n23)cc1: -2.4
Clc1cccc(-c2ccc(/C=N/n3cnnc3)o2)c1Cl: 1.1
c1ccc(N2CCN(c3cnc4ccccc4n3)CC2)cc1: 5
CC(=O)OCCCNc1cc(Sc2ccc(Cl)cc2)c2nonc2c1[N+](=O)[O-]: 56.3

[in] // returns reported inhibition for input O=C(CCNC(=O)Cn1ccc2ccccc2c1=O)NCCCN1CCOCC1
[out] 10.9

[in] // next record Clc1cccc(-c2ccc(C=Nc3ccc(N4CCOCC4)cc3)o2)c1Cl
[out] 63.9

[in] Follow-up item: CC(=O)OCCCNc1cc(SCc2ccco2)c2nonc2c1[N+](=O)[O-]
[out] 40.1

[in] Again, but for O=C(NCC1OCCCN1S(=O)(=O)c1cc(F)ccc1F)C(=O)NC1CCCCC1 (centres undefined)
[out] -0.8

[in] Repeat with O=C(COC(=O)c1cc(S(=O)(=O)N2CCOCC2)cs1)c1ccccc1
[out] 11.5

[in] Another: CCc1ccc(NC(=S)N2CCCC(C(F)(F)F)C2)cc1 (centres undefined)
[out] 13.4

[in] How about this compound: CCOC(=O)c1c(C)n(C)c2ccc(O)c(CN3CCN(C)CC3)c12
[out] 54.1

[in] // same read-out, input: Cc1ccc(C(=O)CC2(O)C(=O)N(C)c3ccccc32)s1 (centres undefined)
[out] 9.4

[in] Cool, now Clc1cccc(-c2ccc(C=Nc3ccc(N4CCOCC4)cc3)o2)c1
[out] 33.8

[in] Same thing, different compound: Cc1c(Br)c(=O)oc2c(Br)c(O)c(O)cc12
[out] -33.8

[in] Entry to check: Oc1ccc(C=Nc2ccc(N3CCOCC3)cc2)c(O)c1
[out] 13.7

====

target-desc: Mannose-6-phosphate isomerase (Homo sapiens) (UniProt P34949)
assay-summary: MPI inhibition at elevated mannose 6-phosphate – biochemical, fluorescence intensity, high mannose 6-phosphate, primary screen (AID 1220)
experimental-setup: recombinant PMI enzyme, coupled fluorescence intensity; at 20 µM
In all, about 190,000 compounds went through this assay and about 1,300 (0.68%) were called active. Rule as the data show it: active = inhibition above about 50%; inactive = the rest. Shown is part of a subset that was picked to be rich in actives.
Outcome (select one): Y for active, N for inactive

Below are worked cases with known answers.
CC1=CC(=O)C=C(C)C1=NOc1ccccc1[N+](=O)[O-]: Y
CN1CCC(=NOc2ccc([N+](=O)[O-])cc2)CC1: N
CCOC(=O)Cn1c(-c2cccnc2Cl)nc2cc(Cl)c(Cl)cc21: N
CCOC(=O)C1(Cc2cccc(F)c2)CCN(C(=O)C2CCCO2)CC1 (stereo unspecified): N

[in] Given O=C(CCCN1C(=O)/C(=C\c2ccco2)SC1=S)Nc1ccc2ccccc2c1 , state the outcome it received in this test.
[out] N

[in] Do the same for O=C1/C(=C/c2ccco2)SC(=S)N1C1CCS(=O)(=O)C1 (stereo unspecified) please
[out] Y

====

target-desc: Mannose-6-phosphate isomerase (Homo sapiens) (UniProt P34949)
assay-summary: MPI inhibition at elevated mannose 6-phosphate – biochemical, fluorescence intensity, high mannose 6-phosphate, primary screen (AID 1220)
experimental-setup: recombinant PMI enzyme, coupled fluorescence intensity; at 20 µM
Among all 190,000 compounds or so, about 1,300 (0.68%) were called active. Rule as the data show it: active = inhibition above about 50%; inactive = the rest. The list comes from a sample in which actives are over-represented; it also holds close analogues and randomly drawn compounds.
One label from this list, please: TRUE (active), FALSE (inactive)

[in] # fetch the recorded call for CCCC(=O)Nc1ccccc1N1CCN(C(=O)C(C)C)CC1 here
[out] FALSE

[in] And Cc1ccc(OCCOCCn2cnc3ccccc3c2=O)c([N+](=O)[O-])c1 ?
[out] TRUE

[in] Another: O=C(CS(=O)(=O)c1ccccc1)Nc1nc(-c2ccc(F)cc2)cs1
[out] FALSE

[in] Consider next the molecule COc1cc(C)ccc1OCCOCCOc1cccc2ccc(C)nc12 in the same way.
[out] FALSE

[in] Also O=C(NC1CCCCC1)c1ccc(NS(=O)(=O)c2cccc3cccnc23)cc1 , if possible.
[out] FALSE

[in] Entry Cc1ccc(OCCOc2cccc3ccc(C)nc23)c([N+](=O)[O-])c1 please
[out] TRUE

====

target-desc: Mannose-6-phosphate isomerase (Homo sapiens)
assay-summary: MPI inhibition at elevated mannose 6-phosphate – biochemical, fluorescence intensity, high mannose 6-phosphate, primary screen (AID 1220)
experimental-setup: recombinant PMI enzyme, coupled fluorescence intensity; at 20 µM; hits give high values
Hit rate of the full screen: of about 190,000 compounds, about 1,300 (0.68%) were called active. Only a selection was taken, and actives are over-represented in it overall.
measurement-name: inhibition (%)
Answer format: numeric, % implied, no suffix.

[in] Tell me reported inhibition for CCOC(=O)c1ccc(NC(=O)C(C)N2C(=O)c3ccccc3C2=O)cc1 (stereo unspecified) , tested with Mannose-6-phosphate isomerase (Homo sapiens).
[out] 5

[in] Now give it for COC(=O)C(C(C)=O)C1=C/C(=N\S(=O)(=O)c2ccc(C)cc2)c2ccccc2C1=O (stereo unspecified) too.
[out] 18

[in] Proceed to CN1C(=O)c2ccccc2N(C)C1c1cccs1 (stereo unspecified)
[out] 10

[in] // query: CCOC(=O)c1ccc(NC2=CC(=O)C(=O)c3ccccc32)cc1
[out] 57.3

[in] Could you do the same for Cc1ccc(S(=O)(=O)Cc2ccc(C(=O)N3CCc4ccccc4C3)o2)cc1 , please?
[out] -0.7

[in] What about CC(C)C(NC(=O)c1ccccc1Cl)C(=O)OCc1nc2scc(-c3ccccc3Cl)c2c(=O)[nH]1 (stereo unspecified) ?
[out] -15.4

[in] Next compound up: OC(c1ccccc1)c1nc2ccccc2s1 (stereo unspecified)
[out] 6

[in] What do you have for CC1(C)CC(=O)C(N=Nc2cc(Cl)c(Cl)c(Cl)c2)=C(O)C1 ?
[out] -3.4

[in] Quick one: CC1N(C)c2cccc3cccc(c23)N1C
[out] 62.9

[in] Input CC1Oc2ccccc2C=C1/C=C1/SC(N2CCOCC2)=NC1=O (stereo unspecified)
[out] 26.6

[in] Let us now turn to Cc1onc(-c2c(F)cccc2Cl)c1C(=O)N1CCCc2ccccc21
[out] 4.2

[in] Item: CCOC(=O)c1c(/N=C/c2cc(C)ccc2O)sc2c1CCN(C)C2
[out] -5.7

[in] And then CC(C)c1ccc(S(=O)(=O)/N=C2/C=CC(=O)c3ccccc32)cc1 , what is it?
[out] 44.1

[in] Now consider CCc1ccc(S(=O)(=O)ON2C(=O)c3ccccc3C2=O)cc1 .
[out] -11.4

[in] Can you handle COc1ccc2nc3ccccc3nc2c1NC(=O)c1ccc(Cl)cc1 next?
[out] 23

[in] Input COC(=O)c1ccc(CSCC(=O)Nc2ccccc2)cc1
[out] 6.4

[in] Try this compound next: CCc1ccc(C(=O)CSc2ncn[nH]2)cc1
[out] -20.5

[in] What do you get for COc1ccc(NC(=O)CSCc2ccc(C)cc2)cc1 ?
[out] 1.9

[in] Please do the same for CCCCN(C(=O)NC(=O)Nc1cccc(C)c1C)S(C)(=O)=O as well.
[out] -3.7
